protocolSummary: Solubility in the aqueous phase
Type: physicochemical
conditionContext: water with added NaOH solution, aqueous buffer; water, after addition of NaOH solution; read-out: solubility of the formed salt in the aqueous phase
observedProperty: solubility

INSERT INTO measurements (givensmiles, observedproperty, endpointresult) VALUES
  ('c1cc(-c2nnn[nH]2)ccc1C(=C(c1ccc(-c2nnn[nH]2)cc1)c1ccc(-c2nnn[nH]2)cc1)c1ccc(-c2nnn[nH]2)cc1', 'solubility', '≤ 1000 mM');
